# System: HCC-366
# Experiment description: relative viability (nuclei count vs DMSO), 5 days (fraction); higher = more cells survive
# Condition context: first compound 0.000632 µM
Simple rule here: relative viability less than 0.1 is condition met, otherwise condition not met.

Q: Please indicate whether the reported relative viability of CC(=O)O[C@@]12CO[C@@H]1C[C@H](O)[C@@]1(C)C(=O)[C@H](O)C3=C(C)[C@@H](OC(=O)[C@H](O)[C@@H](NC(=O)OC(C)(C)C)c4ccccc4)C[C@@](O)([C@@H](OC(=O)c4ccccc4)[C@H]21)C3(C)C [Docetaxel] + Nc1nc2[nH]cc(CCc3ccc(C(=O)N[C@@H](CCC(=O)O)C(=O)O)cc3)c2c(=O)[nH]1 [Pemetrexed] (partner 0.2 µM) is strictly below 0.1.
Ans: condition not met

Q: Please indicate whether the reported relative viability of CC(=O)O[C@@]12CO[C@@H]1C[C@H](O)[C@@]1(C)C(=O)[C@H](O)C3=C(C)[C@@H](OC(=O)[C@H](O)[C@@H](NC(=O)OC(C)(C)C)c4ccccc4)C[C@@](O)([C@@H](OC(=O)c4ccccc4)[C@H]21)C3(C)C [Docetaxel] + C[C@@H](Oc1cc(-c2cnn(C3CCNCC3)c2)cnc1N)c1c(Cl)ccc(F)c1Cl [Crizotinib] (partner 1 µM) is strictly below 0.1.
Ans: condition met

Q: Please indicate whether the reported relative viability of CC(=O)O[C@@]12CO[C@@H]1C[C@H](O)[C@@]1(C)C(=O)[C@H](O)C3=C(C)[C@@H](OC(=O)[C@H](O)[C@@H](NC(=O)OC(C)(C)C)c4ccccc4)C[C@@](O)([C@@H](OC(=O)c4ccccc4)[C@H]21)C3(C)C [Docetaxel] + CC(=O)c1c(C)c2cnc(Nc3ccc(N4CCNCC4)cn3)nc2n(C2CCCC2)c1=O [Palbociclib] (partner 0.5 µM) is strictly below 0.1.
Ans: condition met

Q: Please indicate whether the reported relative viability of CC(=O)O[C@@]12CO[C@@H]1C[C@H](O)[C@@]1(C)C(=O)[C@H](O)C3=C(C)[C@@H](OC(=O)[C@H](O)[C@@H](NC(=O)OC(C)(C)C)c4ccccc4)C[C@@](O)([C@@H](OC(=O)c4ccccc4)[C@H]21)C3(C)C [Docetaxel] + O=C(c1cc(Cc2n[nH]c(=O)c3ccccc23)ccc1F)N1CCN(C(=O)C2CC2)CC1 [Olaparib] (partner 8 µM) is strictly below 0.1.
Ans: condition not met

Q: Please indicate whether the reported relative viability of CC(=O)O[C@@]12CO[C@@H]1C[C@H](O)[C@@]1(C)C(=O)[C@H](O)C3=C(C)[C@@H](OC(=O)[C@H](O)[C@@H](NC(=O)OC(C)(C)C)c4ccccc4)C[C@@](O)([C@@H](OC(=O)c4ccccc4)[C@H]21)C3(C)C [Docetaxel] + O=C(CCCCCCC(=O)Nc1ccccc1)NO [Vorinostat] (partner 1 µM) is strictly below 0.1.
Ans: condition met

Q: Please indicate whether the reported relative viability of CC(=O)O[C@@]12CO[C@@H]1C[C@H](O)[C@@]1(C)C(=O)[C@H](O)C3=C(C)[C@@H](OC(=O)[C@H](O)[C@@H](NC(=O)OC(C)(C)C)c4ccccc4)C[C@@](O)([C@@H](OC(=O)c4ccccc4)[C@H]21)C3(C)C [Docetaxel] + Cc1cc(Nc2cc(N3CCN(C)CC3)nc(Sc3ccc(NC(=O)C4CC4)cc3)n2)n[nH]1 [Tozasertib] (partner 0.1 µM) is strictly below 0.1.
Ans: condition met

Q: Please indicate whether the reported relative viability of CC(=O)O[C@@]12CO[C@@H]1C[C@H](O)[C@@]1(C)C(=O)[C@H](O)C3=C(C)[C@@H](OC(=O)[C@H](O)[C@@H](NC(=O)OC(C)(C)C)c4ccccc4)C[C@@](O)([C@@H](OC(=O)c4ccccc4)[C@H]21)C3(C)C [Docetaxel] + N=C(N)NC(=N)NCCc1ccccc1 [Phenformin] (partner 250 µM) is strictly below 0.1.
Ans: condition not met

---

# Tested on: H3255
# Experiment description: relative viability (nuclei count vs DMSO), 5 days (fraction); higher = more cells survive
# Condition context: first compound 0.006325 µM
Kindly supply the reported relative viability values for the records listed here.
I'd appreciate a reply containing only the number, no unit.

Reported relative viability for CC(=O)O[C@@]12CO[C@@H]1C[C@H](O)[C@@]1(C)C(=O)[C@H](O)C3=C(C)[C@@H](OC(=O)[C@H](O)[C@@H](NC(=O)OC(C)(C)C)c4ccccc4)C[C@@](O)([C@@H](OC(=O)c4ccccc4)[C@H]21)C3(C)C [Docetaxel] + O=C(CCCCCCC(=O)Nc1ccccc1)NO [Vorinostat] (partner 1 µM) was 0.345

Reported relative viability for CC(=O)O[C@@]12CO[C@@H]1C[C@H](O)[C@@]1(C)C(=O)[C@H](O)C3=C(C)[C@@H](OC(=O)[C@H](O)[C@@H](NC(=O)OC(C)(C)C)c4ccccc4)C[C@@](O)([C@@H](OC(=O)c4ccccc4)[C@H]21)C3(C)C [Docetaxel] + Cc1nc(Nc2ncc(C(=O)Nc3c(C)cccc3Cl)s2)cc(N2CCN(CCO)CC2)n1 [Dasatinib] (partner 0.075 µM) was 0.309

---

# System: NCI-H1355
# Experiment description: relative viability (nuclei count vs DMSO), 5 days (fraction); higher = more cells survive
# Condition context: first compound 0.002 µM
Measured endpoint: relative viability
I'd appreciate a reply containing only the number, no unit.

Note to self: relative viability of CC(=O)O[C@@]12CO[C@@H]1C[C@H](O)[C@@]1(C)C(=O)[C@H](O)C3=C(C)[C@@H](OC(=O)[C@H](O)[C@@H](NC(=O)OC(C)(C)C)c4ccccc4)C[C@@](O)([C@@H](OC(=O)c4ccccc4)[C@H]21)C3(C)C [Docetaxel] + Cc1nc(Nc2ncc(C(=O)Nc3c(C)cccc3Cl)s2)cc(N2CCN(CCO)CC2)n1 [Dasatinib] (partner 0.075 µM) with NCI-H1355 was 0.472

Note to self: relative viability of CC(=O)O[C@@]12CO[C@@H]1C[C@H](O)[C@@]1(C)C(=O)[C@H](O)C3=C(C)[C@@H](OC(=O)[C@H](O)[C@@H](NC(=O)OC(C)(C)C)c4ccccc4)C[C@@](O)([C@@H](OC(=O)c4ccccc4)[C@H]21)C3(C)C [Docetaxel] + NC(=O)Nc1cc(-c2cccc(F)c2)sc1C(=O)N[C@H]1CCCNC1 [AZD7762] (partner 0.2 µM) with NCI-H1355 was 0.411

---

# System: NCI-H3122
# Experiment description: relative viability (nuclei count vs DMSO), 5 days (fraction); higher = more cells survive
# Condition context: first compound 0.8 µM
Simple rule here: relative viability less than 0.7 is YES, otherwise NO.

Q: Please indicate whether the reported relative viability of O=c1[nH]c2ccccc2n1C1CCN(CCCC(c2ccc(F)cc2)c2ccc(F)cc2)CC1 [Pimozide] + COc1cccc2cc(-c3nc([C@H]4CC[C@H](C(=O)O)CC4)n4ncnc(N)c34)[nH]c12 [OSI-027] (partner 0.5 µM) is strictly below 0.7.
Ans: NO

Q: Please indicate whether the reported relative viability of O=c1[nH]c2ccccc2n1C1CCN(CCCC(c2ccc(F)cc2)c2ccc(F)cc2)CC1 [Pimozide] + CC(C)C[C@H](NC(=O)[C@H](Cc1ccccc1)NC(=O)c1cnccn1)B(O)O [Bortezomib] (partner 0.002 µM) is strictly below 0.7.
Ans: NO

Q: Please indicate whether the reported relative viability of Cc1cnc(-c2cnc(NCCNc3ccc(C#N)cn3)nc2-c2ccc(Cl)cc2Cl)[nH]1 + CC(=O)c1c(C)c2cnc(Nc3ccc(N4CCNCC4)cn3)nc2n(C2CCCC2)c1=O [Palbociclib] (partner 0.5 µM) is strictly below 0.7.
Ans: YES

Q: Please indicate whether the reported relative viability of O=c1[nH]c2ccccc2n1C1CCN(CCCC(c2ccc(F)cc2)c2ccc(F)cc2)CC1 [Pimozide] + O=C(c1cc(Cc2n[nH]c(=O)c3ccccc23)ccc1F)N1CCN(C(=O)C2CC2)CC1 [Olaparib] (partner 8 µM) is strictly below 0.7.
Ans: YES

Q: Please indicate whether the reported relative viability of Cc1cnc(-c2cnc(NCCNc3ccc(C#N)cn3)nc2-c2ccc(Cl)cc2Cl)[nH]1 + Cc1nc(NC(=O)N2CCC[C@H]2C(N)=O)sc1-c1ccnc(C(C)(C)C(F)(F)F)c1 [Alpelisib] (partner 2 µM) is strictly below 0.7.
Ans: NO

---

Kindly supply the reported relative viability values for the records listed here.
# System: NCI-H1651
# Experiment description: relative viability (nuclei count vs DMSO), 5 days (fraction); higher = more cells survive
# Condition context: first compound 2.53 µM
I'd appreciate a reply containing only the number, no unit.

Note to self: relative viability of O=c1[nH]c2ccccc2n1C1CCN(CCCC(c2ccc(F)cc2)c2ccc(F)cc2)CC1 [Pimozide] + C[C@@H](Oc1cc(-c2cnn(C3CCNCC3)c2)cnc1N)c1c(Cl)ccc(F)c1Cl [Crizotinib] (partner 1 µM) with NCI-H1651 was 0.764

Note to self: relative viability of O=c1[nH]c2ccccc2n1C1CCN(CCCC(c2ccc(F)cc2)c2ccc(F)cc2)CC1 [Pimozide] + CS(=O)(=O)N1CCN(Cc2cc3nc(-c4cccc5[nH]ncc45)nc(N4CCOCC4)c3s2)CC1 [Pictilisib] (partner 1 µM) with NCI-H1651 was 0.543

Note to self: relative viability of Cc1cnc(-c2cnc(NCCNc3ccc(C#N)cn3)nc2-c2ccc(Cl)cc2Cl)[nH]1 + CC(C)C[C@H](NC(=O)[C@H](Cc1ccccc1)NC(=O)c1cnccn1)B(O)O [Bortezomib] (partner 0.002 µM) with NCI-H1651 was 0.92

Note to self: relative viability of O=c1[nH]c2ccccc2n1C1CCN(CCCC(c2ccc(F)cc2)c2ccc(F)cc2)CC1 [Pimozide] + C[C@]1(O)C[C@@H](c2nc(-c3ccc4ccc(-c5ccccc5)nc4c3)c3c(N)nccn32)C1 [Linsitinib] (partner 1 µM) with NCI-H1651 was 0.97
